molecular target: CDK2 (p33^cdk2, cyclin E) (Homo sapiens, UniProt P24941); test: CDK inhibition assay, p33^cdk2 kinase, histone H1 phosphorylation; conditions: read-out: CDK2 IC50; 15 μM ATP, histone H1, 30° C.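 Also: Baculovirus-expressed kinase/cyclin complex from Sf9 cell extract, 10 min at 30 °C, phosphoproteins separated by SDS gel and quantified by image analysis, activity relative to DMSO control.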
Exercise: state measured IC50 for each of the compounds provided.
Express the result in µM but write the number alone.

The compound Cc1n[nH]c2c(Nc3ccc(N)c(Cl)c3)ncnc12 showed IC50 equal to 28

IC50 recorded for this compound, COc1ccc(CNc2ncnc3c(C(C)C)n[nH]c23)cc1O , is 0.2

Field IC50 (entry CC(C)c1n[nH]c2c(NC3CCC(N)CC3)ncnc12 (stereo not shown) ) reads 70

Just so you know, measured IC50 for CC(C)c1n[nH]c2c(Nc3ccc(Cl)c(C(=O)O)c3)ncnc12 came out at 2.9

Entry Cc1n[nH]c2c(NCc3ccccc3Cl)ncnc12 ; IC50 = 24

// sample Cc1n[nH]c2c(Nc3cccc(Cl)c3)ncnc12 , its IC50 was 16
